Task for the reader: assign each of the following molecules its reported caspase 30 μM.
test system: Caspase 3; experiment: Caspase 3 detection assay in SJSA1 cells; type: cell-based; conditions: 30 μM, SJSA1, 48 h, Caspase 3 activation over DMSO-treated cells
Bridge positions count the residues as written; N and C are the ends. Square brackets hold non-standard residues; d marks the D form. Peptide text beside a SMILES is read from it. R8 = C=CCCCCCC[C@@](C)(N)C(=O)O; hLeu = CC(C)CC[C@H](N)C(=O)O; S5 = C=CCCC[C@](C)(N)C(=O)O
API note: the answer field is a bare number with no unit suffix.

Looking up CC(=O)N[C@@H](CC(C)C)C(=O)N[C@H](C(=O)N[C@@H](Cc1ccccc1)C(=O)N[C@]1(C)CCCCCCC=CCCC[C@@](C)(C(=O)N[C@@H](C)C(=O)N[C@@H](Cc2c[nH]cn2)C(=O)N[C@@H](Cc2ccccc2)C(=O)N[C@@H](C)C(N)=O)NC(=O)[C@H](CC(C)C)NC(=O)[C@H](C)NC(=O)[C@H](C)NC(=O)[C@H](Cc2c[nH]c3ccccc23)NC(=O)[C@H](Cc2ccc(O)cc2)NC(=O)[C@H](C)NC1=O)[C@@H](C)O [compound 204] (Ac-LTF[R8]AYWAAL[S5]AHFA-NH2; staple 4-11) , I see its caspase 30 μM listed as 10

Looking up CC(=O)N[C@@H](CC(C)C)C(=O)N[C@H](C(=O)N[C@@H](Cc1ccccc1)C(=O)N[C@]1(C)CCCCCC/C=C/CCC[C@@](C)(C(=O)N[C@@H](C)C(=O)N[C@@H](C)C(=O)N[C@@H](C)C(=O)N[C@@H](C)C(=O)N[C@@H](C)C(=O)N[C@H](C)C(N)=O)NC(=O)[C@H](CC2CCC2)NC(=O)[C@H](CCC(N)=O)NC(=O)[C@H](CO)NC(=O)[C@H](Cc2c[nH]c3ccccc23)NC(=O)[C@H](Cc2ccc(O)cc2)NC(=O)[C@H](CCC(=O)O)NC1=O)[C@@H](C)O [compound 351] , I see its caspase 30 μM listed as 24

Looking up CC(=O)N[C@@H](CC(C)C)C(=O)N[C@H](C(=O)N[C@@H](Cc1ccccc1)C(=O)N[C@]1(C)CCCCCC/C=C\CCC[C@@](C)(C(=O)N[C@@H](CO)C(=O)N[C@@H](C)C(=O)N[C@@H](C)C(N)=O)NC(=O)[C@H](CCC(C)C)NC(=O)[C@H](CCC(N)=O)NC(=O)[C@H](C)NC(=O)[C@H](Cc2c[nH]c3ccccc23)NC(=O)[C@H](Cc2ccc(O)cc2)NC(=O)[C@H](C)NC1=O)[C@@H](C)O [compound 114] (Ac-LTF[R8]AYWAQ[hLeu][S5]SAA-NH2; staple (Z) 4-11) , I see its caspase 30 μM listed as 34

Looking up CC[C@H](C)[C@H](NC(=O)[C@H](C)NC(=O)[C@H](C)NC(=O)[C@]1(C)CCCC=CCCCCCC[C@@](C)(NC(=O)[C@H](Cc2ccccc2)NC(=O)[C@@H](NC(=O)[C@H](CC(C)C)NC(C)=O)[C@@H](C)O)C(=O)N[C@@H](C)C(=O)N[C@@H](Cc2ccc(O)cc2)C(=O)N[C@@H](Cc2c[nH]c3ccccc23)C(=O)N[C@@H](C)C(=O)N[C@@H](CCC(N)=O)C(=O)N[C@@H](CC(C)C)C(=O)N1)C(=O)N[C@H](CC(C)C)C(N)=O (single isomer, unassigned) [compound 81] , I see its caspase 30 μM listed as 21

====

system: Caspase 3; test: Caspase 3 detection assay in SJSA1 cells; assay type: cell-based; settings: 3 μM, SJSA1, 48 h, Caspase 3 activation over DMSO-treated cells
Bridge positions count the residues as written; N and C are the ends. Square brackets hold non-standard residues; d marks the D form. Peptide text beside a SMILES is read from it. Phe(4-COOH) = N[C@@H](Cc1ccc(C(=O)O)cc1)C(=O)O; R8 = C=CCCCCCC[C@@](C)(N)C(=O)O; Cba = N[C@@H](CC1CCC1)C(=O)O; S5 = C=CCCC[C@](C)(N)C(=O)O; Nle = CCCC[C@H](N)C(=O)O
observation.type: caspase 3 μM
API note: the answer field is a bare number with no unit suffix.

Looking up CC(=O)N[C@@H](CC(C)C)C(=O)N[C@H](C(=O)N[C@@H](Cc1ccccc1)C(=O)N[C@]1(C)CCCCCCC=CCCC[C@@](C)(C(=O)N[C@@H](C)C(=O)N[C@@H](C)C(=O)N[C@@H](C)C(=O)N[C@@H](C)C(=O)N[C@H](C)C(N)=O)NC(=O)[C@H](CC(C)C)NC(=O)[C@H](CCC(N)=O)NC(=O)[C@H](C)NC(=O)[C@H](Cc2c[nH]c3ccccc23)NC(=O)[C@H](Cc2ccc(O)cc2)NC(=O)[C@H](C)NC1=O)[C@@H](C)O [compound 233] , I see its caspase 3 μM listed as 17

Looking up CCCC[C@H](NC(=O)[C@H](C)NC(=O)[C@H](CO)NC(=O)[C@]1(C)CCCC=CCCCCCC[C@@](C)(NC(=O)[C@H](Cc2ccccc2)NC(=O)[C@@H](NC(=O)[C@H](CC(C)C)NC(C)=O)[C@@H](C)O)C(=O)N[C@@H](CCC(=O)O)C(=O)N[C@@H](Cc2ccc(C(=O)O)cc2)C(=O)N[C@@H](Cc2c[nH]c3ccccc23)C(=O)N[C@@H](C)C(=O)N[C@@H](CCC(N)=O)C(=O)N[C@@H](CC2CCC2)C(=O)N1)C(=O)N[C@@H](C)C(N)=O [compound 244] (Ac-LTF[R8]E[Phe(4-COOH)]WAQ[Cba][S5]SA[Nle]A-NH2; staple 4-11) , I see its caspase 3 μM listed as 2

====

Task for the reader: assign each of the following compounds its reported caspase 30 μM.
test system: Caspase 3; experiment: Caspase 3 detection assay in SJSA1 cells; assay type: cell-based; settings: 30 μM, SJSA1, 48 h, Caspase 3 activation over DMSO-treated cells
Bridge positions count the residues as written; N and C are the ends. Square brackets hold non-standard residues; d marks the D form. Peptide text beside a SMILES is read from it. R8 = C=CCCCCCC[C@@](C)(N)C(=O)O; S5 = C=CCCC[C@](C)(N)C(=O)O
API note: the answer field is a bare number with no unit suffix.

Looking up CSCC[C@H](NC(=O)[C@H](C)NC(=O)[C@H](C)NC(=O)[C@]1(C)CCCC=CCCCCCC[C@@](C)(NC(=O)[C@H](Cc2ccccc2)NC(=O)[C@@H](NC(=O)[C@H](CC(C)C)NC(C)=O)[C@@H](C)O)C(=O)N[C@@H](C)C(=O)N[C@@H](Cc2ccc(O)cc2)C(=O)N[C@@H](Cc2c[nH]c3ccccc23)C(=O)N[C@@H](C)C(=O)N[C@@H](C)C(=O)N[C@@H](CC(C)C)C(=O)N1)C(=O)N[C@H](C)C(N)=O [compound 72] (Ac-LTF[R8]AYWAAL[S5]AAM[dA]-NH2; staple 4-11) , I see its caspase 30 μM listed as 10

Looking up CC(=O)N[C@@H](CC(C)C)C(=O)N[C@H](C(=O)N[C@@H](Cc1ccccc1)C(=O)N[C@]1(C)CCCCCCC=CCCC[C@@](C)(C(=O)N[C@@H](CO)C(=O)N[C@@H](C)C(=O)N[C@@H](C)C(=O)N[C@H](C)C(N)=O)NC(=O)[C@H](CC2CCC2)NC(=O)[C@H](CCC(N)=O)NC(=O)[C@H](C)NC(=O)[C@H](Cc2c[nH]c3ccccc23)NC(=O)[C@H](Cc2ccc(O)cc2)NC(=O)[C@H](CCC(=O)O)NC1=O)[C@@H](C)O (single isomer, unassigned) [compound 353] , I see its caspase 30 μM listed as 30

====

tested on: Caspase 3; experiment: Caspase 3 detection assay in SJSA1 cells; assay type: cell-based; settings: 30 μM, SJSA1, 48 h, Caspase 3 activation over DMSO-treated cells
observation.type: caspase 30 μM
API note: the answer field is a bare number with no unit suffix.

Looking up CC(=O)N[C@@H](CC(C)C)C(=O)N[C@H](C(=O)N[C@@H](Cc1ccccc1)C(=O)N[C@]1(C)CCCCCCC=CCCC[C@@](C)(C(=O)N[C@@H](C)C(=O)N[C@@H](C)C(=O)N[C@@H](C)C(=O)N[C@@H](C)C(=O)N[C@@H](C)C(=O)N[C@H](C)C(N)=O)NC(=O)[C@H](CC2CCC2)NC(=O)[C@H](CCC(N)=O)NC(=O)[C@H](C)NC(=O)[C@H](Cc2c[nH]c3ccccc23)NC(=O)[C@H](Cc2ccc(O)cc2)NC(=O)[C@H](CCC(=O)O)NC1=O)[C@@H](C)O (single isomer, unassigned) , I see its caspase 30 μM listed as 29

====

test system: Caspase 3; experiment: Caspase 3 detection assay in SJSA1 cells; type: cell-based; conditions: 30 μM, SJSA1, 48 h, Caspase 3 activation over DMSO-treated cells
Bridge positions count the residues as written; N and C are the ends. Square brackets hold non-standard residues; d marks the D form. Peptide text beside a SMILES is read from it. R8 = C=CCCCCCC[C@@](C)(N)C(=O)O; Cba = N[C@@H](CC1CCC1)C(=O)O; S5 = C=CCCC[C@](C)(N)C(=O)O; Nle = CCCC[C@H](N)C(=O)O
Task for the reader: assign each of the following compounds its reported caspase 30 μM.
API note: the answer field is a bare number with no unit suffix.

Looking up CCCC[C@H](NC(=O)[C@H](C)NC(=O)[C@H](C)NC(=O)[C@]1(C)CCCC=CCCCCCC[C@@](C)(NC(=O)[C@H](Cc2ccccc2)NC(=O)[C@@H](NC(=O)[C@H](CCC(=O)O)NC(C)=O)[C@@H](C)O)C(=O)N[C@@H](C)C(=O)N[C@@H](Cc2ccc(O)cc2)C(=O)N[C@@H](Cc2c[nH]c3ccccc23)C(=O)N[C@@H](C)C(=O)N[C@@H](CCC(N)=O)C(=O)N[C@@H](CC2CCC2)C(=O)N1)C(=O)N[C@@H](C)C(N)=O [compound 237] (Ac-ETF[R8]AYWAQ[Cba][S5]AA[Nle]A-NH2; staple 4-11) , I see its caspase 30 μM listed as 15

Looking up CC(=O)N[C@@H](CC(C)C)C(=O)N[C@H](C(=O)N[C@@H](Cc1ccccc1)C(=O)N[C@]1(C)CCCCCCC=CCCC[C@@](C)(C(=O)N[C@@H](C)C(=O)N[C@@H](Cc2c[nH]cn2)C(=O)N[C@@H](Cc2ccccc2)C(=O)N[C@@H](C)C(N)=O)NC(=O)[C@H](CC(C)C)NC(=O)[C@H](CCC(N)=O)NC(=O)[C@H](C)NC(=O)[C@H](Cc2c[nH]c3ccccc23)NC(=O)[C@H](Cc2c[nH]cn2)NC(=O)[C@H](C)NC1=O)[C@@H](C)O [compound 183] (Ac-LTF[R8]AHWAQL[S5]AHFA-NH2; staple 4-11) , I see its caspase 30 μM listed as 8

Data credit: patent US20200369728A1
